Kindly supply the reported pIC50 values for the records listed here.
# target.under.test: UniProtKB P35968
# Sequence (P35968 20-1356): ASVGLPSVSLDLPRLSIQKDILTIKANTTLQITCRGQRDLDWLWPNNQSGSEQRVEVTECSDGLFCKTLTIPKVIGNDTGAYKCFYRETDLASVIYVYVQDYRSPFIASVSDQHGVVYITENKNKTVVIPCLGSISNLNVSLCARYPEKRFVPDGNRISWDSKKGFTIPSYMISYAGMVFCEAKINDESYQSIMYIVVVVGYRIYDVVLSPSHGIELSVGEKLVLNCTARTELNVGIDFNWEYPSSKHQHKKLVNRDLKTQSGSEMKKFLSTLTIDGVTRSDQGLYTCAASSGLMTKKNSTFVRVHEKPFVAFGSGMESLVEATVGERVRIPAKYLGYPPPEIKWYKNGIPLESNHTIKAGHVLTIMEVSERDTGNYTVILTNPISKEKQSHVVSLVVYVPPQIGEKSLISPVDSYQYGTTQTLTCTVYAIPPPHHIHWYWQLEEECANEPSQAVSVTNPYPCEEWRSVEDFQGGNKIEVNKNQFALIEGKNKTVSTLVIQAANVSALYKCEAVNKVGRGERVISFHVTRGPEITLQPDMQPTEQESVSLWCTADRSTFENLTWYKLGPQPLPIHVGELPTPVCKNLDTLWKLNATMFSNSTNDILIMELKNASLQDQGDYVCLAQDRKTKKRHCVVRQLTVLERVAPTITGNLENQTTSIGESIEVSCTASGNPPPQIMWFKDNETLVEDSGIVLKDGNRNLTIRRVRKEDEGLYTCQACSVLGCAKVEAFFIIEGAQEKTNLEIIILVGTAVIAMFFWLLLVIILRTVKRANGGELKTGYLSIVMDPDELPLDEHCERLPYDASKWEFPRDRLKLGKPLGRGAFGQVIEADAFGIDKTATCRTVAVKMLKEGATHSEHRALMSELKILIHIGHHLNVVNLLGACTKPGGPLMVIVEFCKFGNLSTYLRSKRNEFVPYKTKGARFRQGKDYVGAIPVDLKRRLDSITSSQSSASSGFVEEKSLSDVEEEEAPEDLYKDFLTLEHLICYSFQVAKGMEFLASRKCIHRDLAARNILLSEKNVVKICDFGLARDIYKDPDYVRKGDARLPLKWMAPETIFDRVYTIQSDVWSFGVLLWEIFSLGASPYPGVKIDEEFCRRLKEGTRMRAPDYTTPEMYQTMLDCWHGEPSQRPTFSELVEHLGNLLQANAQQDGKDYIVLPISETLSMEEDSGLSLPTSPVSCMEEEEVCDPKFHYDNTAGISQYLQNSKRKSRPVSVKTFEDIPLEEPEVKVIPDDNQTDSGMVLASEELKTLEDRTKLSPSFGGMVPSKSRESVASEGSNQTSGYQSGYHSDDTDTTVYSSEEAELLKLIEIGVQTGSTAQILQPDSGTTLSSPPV
# protocol.text: 33PanQinase Activity Assay, VEGF-R2
# setup.conditions: recombinant human protein kinase, 1 μM [γ-33P]-ATP, 30° C. 80 minutes
One number for each entry, as −log10 of the molar value.

Sample records with pIC50:
compound	pIC50
Fc1ccc(-c2cc3ncnc(Sc4ncc[nH]4)c3s2)cc1	4.68
O=S1(=O)CCC(Cc2nnc(Sc3ncnc4cc(-c5ccc(F)cc5)sc34)o2)C1 (stereo not shown)	5.69
Fc1ccc(-c2cc3ncnc(Sc4nnc(Cc5ccccc5)o4)c3s2)cc1	5.65

The record that follows has no pIC50 shown yet.
Record "Fc1ccc(-c2cc3ncnc(Sc4ccccn4)c3s2)cc1" . Reported pIC50: 5.01
